Tested on: ATF4 luciferase reporter in HEK293T cells
Assay: ATF4-Luc assay (in vitro model of VWMD)
Type: cell-based, human
Conditions: Homo sapiens, HEK-293T, 7 h, HEK293T cells carrying the ATF4 luciferase reporter, 1 μg/mL tunicamycin, One Glo luminescence

compound: O=C(NC12CC(n3cc(OCCOC(F)(F)F)cn3)(C1)C2)[C@H]1C[C@@H](O)c2cc(C(F)(F)F)ccc2O1
EC50: < 10 nM
--
compound: O=C(NC12CC(c3cn(-c4ccc(OC(F)(F)F)cc4)nn3)(C1)C2)[C@H]1C[C@@H](O)c2cc(Cl)ccc2O1
EC50: < 10 nM
--
compound: O=C(NC12CC(n3cc(OCCOC(F)(F)F)cn3)(C1)C2)[C@@H]1CNc2cc(Cl)ccc2O1
EC50: 10 to 50 nM
--
compound: COc1ncc(OCC(=O)NC23CC(c4ccnc(OCCCOC(F)(F)F)c4)(C2)C3)cn1
EC50: 250 to 500 nM
--
compound: O=C(COc1ccc(Cl)cc1O)NC12CC(n3cc([C@H]4C[C@@H](OC(F)(F)F)C4)nn3)(C1)C2
EC50: 10 to 50 nM
--
compound: O=C(NC12CC(n3cnc(C(=O)N4CC[C@@H](OC(F)(F)F)C4)c3)(C1)C2)[C@H]1C[C@@H](O)c2cc(Cl)ccc2O1
EC50: 10 to 50 nM
--
compound: O=C(NC12CC(n3cnc(-c4c(F)cc(Cl)cc4F)c3)(C1)C2)[C@H]1C[C@@H](O)c2cc(Cl)ccc2O1
EC50: < 10 nM
--
compound: COc1ccc2cn(C34CC(NC(=O)[C@H]5C[C@@H](O)c6cc(Cl)ccc6O5)(C3)C4)nc2c1
EC50: 10 to 50 nM
--
compound: O=C(NC12CC(n3cc([C@@H]4C[C@H]4COC(F)(F)F)cn3)(C1)C2)[C@H]1C[C@@H](O)c2cc(Cl)ccc2O1 (mixture of isomers)
EC50: 10 to 50 nM
--
compound: COc1ccc2nn(C34CC(NC(=O)[C@H]5C[C@@H](O)c6cc(C(F)(F)F)c(F)cc6O5)(C3)C4)cc2n1 (racemic)
EC50: < 10 nM
--
compound: Cc1ccc(-c2cnn(C34CC(NC(=O)[C@H]5C[C@@H](O)c6cc(Cl)ccc6O5)(C3)C4)c2)nc1
EC50: < 10 nM
--
compound: O=C(COc1ccc(Cl)c(Cl)c1)NC12CC(n3cc(C(=O)N4CC[C@H](OC(F)(F)F)C4)cn3)(C1)C2
EC50: < 10 nM
--
compound: COc1ccc2nn([C@H]3CC[C@H](NC(=O)[C@H]4C[C@@H](O)c5cc(Cl)ccc5O4)CC3)cc2n1
EC50: 10 to 50 nM
--
compound: O=C(NC12CC(n3cc(OCCOC(F)(F)F)cn3)(C1)C2)[C@H]1C[C@H](O)c2cc(C(F)(F)F)c(F)cc2O1
EC50: < 10 nM
--
compound: O=C(CO[C@H]1C[C@@H](OC(F)(F)F)C1)NC12CCC(NC(=O)[C@H]3C[C@@H](O)c4cc(Cl)c(F)cc4O3)(CC1)C[C@@H]2O
EC50: < 10 nM
--
compound: O=C(NC12CC(n3cc(NCCCOC(F)(F)F)cn3)(C1)C2)[C@H]1C[C@@H](O)c2cc(Cl)ccc2O1
EC50: < 10 nM
--
compound: O=C(NC12CC(n3cc(-c4ccc(OC(F)(F)F)cn4)cn3)(C1)C2)[C@H]1C[C@@H](O)c2cc(Cl)c(Br)cc2O1
EC50: < 10 nM
--
compound: O=C(N[C@H]1CC[C@H](n2cc(OCC(F)(F)F)cn2)CC1)[C@H]1C[C@@H](O)c2cc(Cl)ccc2O1
EC50: 10 to 50 nM
--
compound: O=C(N[C@H]1CC[C@H](n2cc(-c3ccc(C(F)(F)F)cn3)cn2)CC1)[C@H]1C[C@@H](O)c2cc(Cl)ccc2O1
EC50: < 10 nM
--
compound: O=C(NC12CC(n3cc(OCCOC(F)(F)F)cn3)(C1)C2)C1COc2cc(Cl)c(Cl)cc2O1 (centres unmarked)
EC50: 10 to 50 nM
--
compound: O=C(NC12CC(n3cc(-c4ccc(C5CC5)cn4)cn3)(C1)C2)[C@H]1C[C@@H](O)c2cc(Cl)c(F)cc2O1
EC50: < 10 nM
--
compound: O=C(NC12CC(n3cc(C(=O)N4CC(OC(F)(F)F)C4)cn3)(C1)C2)[C@H]1C[C@@H](O)c2cc(Cl)ccc2O1
EC50: 10 to 50 nM
--
compound: O=C(NC12CC(n3cc(-c4ccn(C(F)(F)F)n4)cn3)(C1)C2)[C@H]1C[C@@H](O)c2cc(Cl)ccc2O1
EC50: < 10 nM
--
compound: O=C(NC12CC(n3cc(-c4ccc(C(F)(F)F)cn4)cn3)(C1)C2)C1CNc2cc(C(F)(F)F)c(F)cc2O1 (centres unmarked)
EC50: 10 to 50 nM
--
compound: O=C(NC12CC(n3cc(-c4ccc(C5CC5)cn4)cn3)(C1)C2)[C@H]1C[C@@H](O)c2cc(Cl)ccc2O1
EC50: < 10 nM
--
compound: O=C(NC12CC(n3cc(-c4ccc(C(F)(F)F)cn4)cn3)(C1)C2)[C@H]1C[C@H](O)c2cc(Cl)c(F)cc2O1
EC50: < 10 nM

###

System: ATF4 luciferase reporter in HEK293T cells
Experiment: ATF4-Luc assay (in vitro model of VWMD)
Format: cell-based, human
Conditions: Homo sapiens, HEK-293T, 7 h, HEK293T cells carrying the ATF4 luciferase reporter, 1 μg/mL tunicamycin, One Glo luminescence
pEC50: −log10 of the molar value.
assay-metric: pEC50

compound: O=C(NC12CC(n3cc(C(=O)N4CC[C@H](OC(F)(F)F)C4)cn3)(C1)C2)[C@H]1C[C@@H](O)c2cc(Cl)ccc2O1
tested-system: ATF4 luciferase reporter in HEK293T cells
assay-metric: pEC50
experimental-value: > 8.00
--
compound: O=C(NC12CC(n3cc4cc(COCC(F)(F)F)ccc4n3)(C1)C2)[C@H]1C[C@@H](O)c2cc(Cl)c(F)cc2O1
tested-system: ATF4 luciferase reporter in HEK293T cells
assay-metric: pEC50
experimental-value: > 8.00
--
compound: O=C(NC12CC(n3cc(-c4ccc(C(F)(F)F)cn4)cn3)(C1)C2)[C@@H]1C[C@@H](O)c2cc(Cl)c(F)cc2O1
tested-system: ATF4 luciferase reporter in HEK293T cells
assay-metric: pEC50
experimental-value: > 8.00
--
compound: O=C(NC12CC(n3cc([C@H]4CC[C@@H](OC(F)(F)F)C4)nn3)(C1)C2)[C@H]1C[C@@H](O)c2cc(Cl)ccc2O1 (relative stereo)
tested-system: ATF4 luciferase reporter in HEK293T cells
assay-metric: pEC50
experimental-value: 7.30 to 8.00
--
compound: O=C(COc1ccc(Cl)c(F)c1)NC12CC(n3cc(CCCOC(F)(F)F)cn3)(C1)C2
tested-system: ATF4 luciferase reporter in HEK293T cells
assay-metric: pEC50
experimental-value: 7.30 to 8.00
--
compound: O=C(N[C@@H]1CC[C@@H](C(=O)N2CC(c3ccc(C(F)(F)F)cc3)C2)OC1)[C@H]1C[C@@H](O)c2cc(Cl)ccc2O1
tested-system: ATF4 luciferase reporter in HEK293T cells
assay-metric: pEC50
experimental-value: > 8.00

###

Test system: ATF4 luciferase reporter in HEK293T cells
Assay: ATF4-Luc assay (in vitro model of VWMD)
Assay type: cell-based, human
Conditions: Homo sapiens, HEK-293T, 7 h, HEK293T cells carrying the ATF4 luciferase reporter, 1 μg/mL tunicamycin, One Glo luminescence
Entries and their measured EC50 follow.

structure-smiles-string: O=C(NC12CC(n3cc(CCCOC(F)(F)F)nn3)(C1)C2)[C@H]1C[C@@H](O)c2cc(Cl)ccc2O1
EC50: < 10 nM

structure-smiles-string: O=C(NC12CC(n3cnc(C(=O)N4CC(OC(F)(F)F)C4)c3)(C1)C2)[C@H]1C[C@@H](O)c2cc(Cl)ccc2O1
EC50: 10 to 50 nM

structure-smiles-string: O=C(NC12CC(n3cc(N4CC[C@@H](COC(F)(F)F)C4)cn3)(C1)C2)[C@H]1C[C@@H](O)c2cc(Cl)ccc2O1
EC50: 50 to 250 nM

structure-smiles-string: O=C(NC12CC(n3cc(N4CC[C@H](COC(F)(F)F)C4)cn3)(C1)C2)[C@H]1C[C@@H](O)c2cc(Cl)ccc2O1
EC50: 50 to 250 nM

structure-smiles-string: COCc1ccc2nn(C34CC(NC(=O)[C@H]5C[C@@H](O)c6cc(Cl)ccc6O5)(C3)C4)cc2c1
EC50: 10 to 50 nM

structure-smiles-string: O=C(NC12CC(n3cc([C@H]4C[C@@H](OC(F)(F)F)C4)nn3)(C1)C2)[C@H]1C[C@@H](O)c2cc(Cl)c(F)cc2O1
EC50: < 10 nM

structure-smiles-string: O=C(NC12CCC(n3cc(OCCCOC(F)(F)F)cn3)(C1)C2)[C@H]1C[C@@H](O)c2cc(Cl)ccc2O1
EC50: 50 to 250 nM

The reported numbers originate from patent US20250145594A1.
